Ref: ChEMBL document CHEMBL1201862

# Tested on: MOLT-4
# assay_summary: NCI tumour cell line growth inhibition, 48 h
The source made the active and inactive calls. Cut-off read from the data, not from the text of the source: active = GI50 up to about 1.1 µM and inactive = higher.
Allowed answers: 1 (yes) = active, 0 (no) = inactive

O=C(NCC(C(=O)OCc1ccccc1)C(=O)OCc1ccccc1)OCc1ccccc1 :: 0 (no)
COc1cccc(N2C(=O)CSC2c2cccc(Oc3ccccc3)c2)c1 (stereo unspecified) :: 0 (no)
O=C(O)CCC(=O)c1ccc2c(c1)C(C(=O)O)CC2 (stereo unspecified) :: 0 (no)
O=C(c1ccc(Br)cc1)n1c2ccc(Br)cc2c2nc3ccccc3nc21 :: 0 (no)
NC(=O)c1ccccc1[N+](=O)[O-] :: 0 (no)

Ask: Recorded test call requested for CC(C)(C)OC(=O)NCCCCC1NC(=O)[C@@H]2Cc3c([nH]c4ccccc34)C(C3CCCCC3)N2C1=O (stereo partly specified)
Reply: 0 (no)

Ask: Recorded test call requested for COC(=O)C(=O)C(C(=O)OC)C(=O)C(=O)Nc1c(C)cccc1C (stereo unspecified)
Reply: 0 (no)

Ask: Recorded test call requested for "CCN(CC)CCNc1c2ccccc2nc2cccc([N+](=O)[O-])c12"
Reply: 1 (yes)

Ask: Recorded test call requested for "C=CCCCn1ccc2ccccc21"
Reply: 0 (no)

Ask: Recorded test call requested for O=C1c2c(ccc3c2CCC3)CC1Cc1ccc2c(c1)CCC2 (stereo unspecified)
Reply: 0 (no)

Ask: Recorded test call requested for "CCc1cc(CCC(=O)Nc2ccccc2[N+](=O)[O-])nc(S)n1"
Reply: 0 (no)
